System: Caspase 3
Assay: Caspase 3 detection assay in SJSA1 cells
Type: cell-based
Settings: 30 μM, SJSA1, 48 h, Caspase 3 activation over DMSO-treated cells
Value Kind: caspase 30 μM

Record CC[C@H](C)[C@H](NC(=O)[C@H](C)NC(=O)[C@H](C)NC(=O)[C@]1(C)CCCC=CCCCCCC[C@@](C)(NC(=O)[C@H](Cc2ccccc2)NC(=O)[C@@H](NC(=O)[C@H](CC(C)C)NC(C)=O)[C@@H](C)O)C(=O)N[C@@H](C)C(=O)N[C@@H](Cc2ccc(O)cc2)C(=O)N[C@@H](Cc2c[nH]c3ccccc23)C(=O)N[C@@H](C)C(=O)N[C@@H](CCC(N)=O)C(=O)N[C@@H](CC(C)C)C(=O)N1)C(=O)N[C@H](C)C(N)=O (single isomer, unassigned) . Reported caspase 30 μM: 26
